- system_name: ActRIIA and ActRIIB (on TGFB/SMAD SBE Reporter HEK293 cells) (human)
- Sequence (chain, as listed by the source, chain 1 of 2): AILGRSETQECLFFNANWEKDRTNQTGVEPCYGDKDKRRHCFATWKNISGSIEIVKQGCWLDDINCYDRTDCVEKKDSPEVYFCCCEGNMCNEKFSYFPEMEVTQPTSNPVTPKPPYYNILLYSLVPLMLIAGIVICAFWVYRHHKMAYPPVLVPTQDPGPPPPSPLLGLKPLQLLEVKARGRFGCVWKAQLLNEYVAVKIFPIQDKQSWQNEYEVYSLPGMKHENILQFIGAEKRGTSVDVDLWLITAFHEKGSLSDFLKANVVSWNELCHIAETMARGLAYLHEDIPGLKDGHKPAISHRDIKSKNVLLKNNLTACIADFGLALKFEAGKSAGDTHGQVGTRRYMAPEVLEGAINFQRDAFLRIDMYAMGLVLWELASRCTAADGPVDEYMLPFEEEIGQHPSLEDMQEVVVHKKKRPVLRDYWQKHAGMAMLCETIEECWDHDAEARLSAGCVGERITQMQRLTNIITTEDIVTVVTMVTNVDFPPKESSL
- Sequence (chain, as listed by the source, chain 2 of 2): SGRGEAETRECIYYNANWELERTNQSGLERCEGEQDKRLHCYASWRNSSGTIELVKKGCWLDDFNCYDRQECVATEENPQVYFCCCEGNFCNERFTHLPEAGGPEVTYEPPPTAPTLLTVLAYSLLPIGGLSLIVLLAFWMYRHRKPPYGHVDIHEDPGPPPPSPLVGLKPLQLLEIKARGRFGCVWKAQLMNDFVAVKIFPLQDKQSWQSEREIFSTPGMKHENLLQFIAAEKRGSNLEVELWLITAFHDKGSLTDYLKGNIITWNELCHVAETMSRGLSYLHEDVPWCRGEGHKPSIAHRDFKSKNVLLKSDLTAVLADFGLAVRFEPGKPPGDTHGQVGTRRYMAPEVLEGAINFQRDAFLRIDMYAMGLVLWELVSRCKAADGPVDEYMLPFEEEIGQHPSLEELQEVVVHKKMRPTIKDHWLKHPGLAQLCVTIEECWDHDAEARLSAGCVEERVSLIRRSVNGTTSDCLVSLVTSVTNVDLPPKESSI
- measurement_description: cell-based or functional assay
Please go through the items and note down their IC90 [nM] (assay not given).
Numeric answer only, unit nM assumed.

Sample Bimagrumab (antibody, V domains shown) VH: QVQLVQSGAEVKKPGASVKVSCKASGYTFTSSYINWVRQAPGQGLEWMGTINPVSGSTSYAQKFQGRVTMTRDTSISTAYMELSRLRSDDTAVYYCARGGWFDYWGQGTLVTVSS VL: QSALTQPASVSGSPGQSITISCTGTSSDVGSYNYVNWYQQHPGKAPKLMIYGVSKRPSGVSNRFSGSKSGNTASLTISGLQAEDEADYYCGTFAGGSYYGVFGGGTKLTVL ; IC90 [nM] (assay not given) observed: 8.07

Input Antibody Springerle (antibody, V domains shown, full-length IgG) VH: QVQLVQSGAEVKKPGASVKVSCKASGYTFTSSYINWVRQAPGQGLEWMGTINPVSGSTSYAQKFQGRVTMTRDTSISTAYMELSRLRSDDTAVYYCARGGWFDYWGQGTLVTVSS VL: QSALTQPASVSGSPGQSITISCTGTSSDVGSYNYVNWYQQHPGKAPKLMIYGVSKRESGVSNRFSGSKSGNTASLTISGLQAEDEADYYCGTFAGGSYRGVFGGGTKLTVL . Output IC90 [nM] (assay not given): 1.5

The value of IC90 [nM] (assay not given) measured for the binder Antibody Rippla (antibody, V domains shown, full-length IgG; also called Ripp1a) VH: QVQLVQSGAEVRKPGASVKVSCKASGYTFTSSYINWVRQAPGQGLEWMGTINPVSGSTSYAQKFQGRVTMTRDTSISTAYMELSRLRSDDTAVYYCARGGWFDYWGQGTLVTVSS VL: QSALTQPASVSGSPGQSITISCTGTSSDVGSYNRVNWYQQHPGKAPKLMIYGVSKRESGVSNRFSGSKSGNTASLTISGLQAEDEADYYCGTFAGGRYYGVFGGGTKLTVL turned out to be 1.27

IC90 [nM] (assay not given) in this record for Antibody Biiramooscht (antibody, V domains shown, full-length IgG) VH: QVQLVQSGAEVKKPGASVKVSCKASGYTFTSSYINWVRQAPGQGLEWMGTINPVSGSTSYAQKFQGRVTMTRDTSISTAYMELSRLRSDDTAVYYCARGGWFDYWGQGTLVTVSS VL: QSALTQPASVSGSPGQSITISCTGTSSDVGSYNYVNWYQQHPGKAPKLMIYGVSKRESGVSNRFSGSKSGNTASLTISGLQAEDEADYYCGTFAGGAYYGVFGGGTKLTVL : 1.16
